EC50 for assorted compounds
method_description: Cytotoxicity against multidrug-resistant human KBV1 cells
Format: functional
conditions_used: KB-V1, read-out: ED50 (the source's name)
Give the quantity in µg/mL, number only.

[[record]]
compound = "COc1cc2c(c(OC)c1OC)C[C@H]1COC(=O)[C@@H]1Cc1c-2cc(OC)c(OC)c1OC [STEGANOLIDE A]"
reported_property = "EC50"
result = 0.8


Name the recorded EC50 for `COC[C@@H]1Cc2cc3c(cc2-c2c(c(OC)cc(OC)c2OC)C[C@H]1C(=O)OC)OCO3` .
0.8

Lookup C/C=C(/C)C(=O)O[C@@H]1c2cc3c(cc2-c2c(cc(OC)c(OC)c2OC)C[C@H]2C(=O)OC[C@H]12)OCO3 [EPISTEGANANGIN]
0.9

And for COc1cc2c(c(OC)c1OC)-c1cc3c(cc1[C@@H](OC(C)=O)C1COC(=O)[C@H]1C2)OCO3 (stereo partly drawn) [STEGANACIN] ?
0.2

Follow-up entry: COc1cc2c(c(OC)c1OC)-c1ccc(OC)c(=O)cc1[C@@H](NC(C)=O)CC2 [COLCHICINE]
3.5

Also, C/C=C(/C)C(=O)O[C@H]1c2cc3c(cc2-c2c(cc(OC)c(OC)c2OC)C[C@H]2C(=O)OC[C@@H]21)OCO3 [STEGANANGIN] please.
0.7

What about this compound? `COc1cc2c(c(OC)c1OC)-c1cc3c(cc1C(=O)[C@H]1COC(=O)[C@@H]1C2)OCO3`
7.1
